- target or system: T1, human plasma IgG2 (human, UniProt P01859-1 1-326 = IgG part)
- T1 construct: Plasma-derived IgG isoform, bought
- T1 sequence (P01859 other isoform, or with tags, fused parts or gaps): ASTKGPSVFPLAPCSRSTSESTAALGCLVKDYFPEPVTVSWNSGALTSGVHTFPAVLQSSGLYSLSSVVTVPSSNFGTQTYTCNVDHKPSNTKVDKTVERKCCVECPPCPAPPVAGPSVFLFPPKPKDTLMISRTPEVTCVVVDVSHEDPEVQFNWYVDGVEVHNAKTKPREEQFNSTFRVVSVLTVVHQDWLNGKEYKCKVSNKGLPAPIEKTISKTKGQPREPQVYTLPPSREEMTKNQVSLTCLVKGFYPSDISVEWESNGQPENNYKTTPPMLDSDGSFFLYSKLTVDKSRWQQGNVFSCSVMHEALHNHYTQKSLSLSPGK
- assay procedure: Oregon Green peptide, pH 4.0 + salt (500 mM NaCl)
endpoint label: Kd
A complete answer gives the number followed by the unit.

Kd for AGTYWCTFWELPCDPAPGPEGGGK (N-terminal acetyl (Ac-); C-terminal amide (-NH2); Oregon Green labeled, Synthesised by BACHEM, Oregon Green labeled, HPLC purified) [DX404] is 2000 nM
